Tested on: 22Rv1 tumor-bearing mice
Test method notes: Biodistribution in 22Rv1 tumor-bearing mice
Assay setup: 30 min p.i., 0.74 MBq, n = 3
Endpoint name: Uptake Muscle, Mean (ID%/g)
# output: bare number, implied unit ID%/g

Query: Which Uptake Muscle, Mean value is on record for O=C([O-])CN1CCN(CC(=O)[O-])CCN(CC(=O)NCC2CCC(C(=O)NC(Cc3cnc4ccccc4c3)C(=O)NCCCCC(NC(=O)NC(CCC(=O)O)C(=O)O)C(=O)O)CC2)CCN(CC(=O)O)CC1.[68Ga+3] (stereo not drawn) [[^68Ga]Ga-PSMA-Q] ?
Reply: 0.21

Query: I would be grateful if you could share the reported Uptake Muscle, Mean for O=C([O-])CN1CCN(CC(=O)[O-])CCN(CC(=O)NCCCCCC(=O)NC(Cc2cnc3ccccc3c2)C(=O)NCCCCC(NC(=O)NC(CCC(=O)O)C(=O)O)C(=O)O)CCN(CC(=O)O)CC1.[68Ga+3] (stereo not drawn) [[^68Ga]Ga-PSMA-Q-2] .
Reply: 0.37

Query: What Uptake Muscle, Mean value was documented for this molecule, O=C([O-])CN(CCN(CC(=O)[O-])Cc1cc(CCC(=O)NCCCCCC(=O)NCCCC[C@H](NC(=O)N[C@@H](CCC(=O)O)C(=O)O)C(=O)O)ccc1[O-])Cc1cc(CCC(=O)O)ccc1[O-].[68Ga+3].[OH3+] [[^68Ga]Ga-PSMA-11, reference compound] ?
Reply: 0.30

###

Test system: 22Rv1 tumor-bearing mice
Test method notes: Biodistribution in 22Rv1 tumor-bearing mice
Assay setup: 10 min p.i., 0.74 MBq, n = 3
Procedure: The animal studies were approved by the institutional animal care and use committee of the Chinese PLA General Hospital. Healthy male ICR mice were injected with either a novel radiotracer (37 MBq in 150 μL) or saline (150 μL) for the radiotoxicity evaluation. […] […] (10 min, 30 min, 60 min), tumors and interested organs were harvested, weighed and measured by a γ-counter, the results were expressed as the percentage of injected dose per gram (ID%/g). […]
Endpoint name: Uptake Bone, Mean (ID%/g)
Please state the figure in ID%/g; there is no need to write the unit.

Query: Which Uptake Bone, Mean reading was recorded for the compound O=C([O-])CN1CCN(CC(=O)[O-])CCN(CC(=O)NCC2CCC(C(=O)NC(Cc3ccc4ccccc4c3)C(=O)NCCCCC(NC(=O)NC(CCC(=O)O)C(=O)O)C(=O)O)CC2)CCN(CC(=O)O)CC1.[68Ga+3] (stereo not drawn) [[^68Ga]Ga-PSMA-617, reference compound] ?
Reply: 1.17

Query: Name the recorded Uptake Bone, Mean for O=C([O-])CN1CCN(CC(=O)[O-])CCN(CC(=O)NCC2CCC(C(=O)NC(Cc3ccncc3)C(=O)NCCCCC(NC(=O)NC(CCC(=O)O)C(=O)O)C(=O)O)CC2)CCN(CC(=O)O)CC1.[68Ga+3] (stereo not drawn) [[^68Ga]Ga-PSMA-4PY] .
Reply: 0.56

Query: Bench note: what Uptake Bone, Mean did O=C([O-])CN1CCN(CC(=O)[O-])CCN(CC(=O)NCC2CCC(C(=O)NC(Cc3cnc4ccccc4c3)C(=O)NCCCCC(NC(=O)NC(CCC(=O)O)C(=O)O)C(=O)O)CC2)CCN(CC(=O)O)CC1.[68Ga+3] (stereo not drawn) [[^68Ga]Ga-PSMA-Q] show?
Reply: 0.72
